molecular target: αvβ3 integrin on U87MG glioblastoma cells (Homo sapiens, UniProt P05106+P06756); construct: host or cells: U87MG glioblastoma cells; assay: 125I-echistatin competition binding to U87MG glioblastoma cells; conditions: read-out: IC50, competition with 125I-echistatin; Cy5.5-labeled peptides (Cy5.5: Yes); U87MG tumor cells
Positions of bridges follow the written chain, without caps; N, C: chain ends. No end group written: not given here.
measurementLabel: IC50 (nM)
One number for each entry, in nM.

# input Fill in reported IC50 for this entry: ECESGPCCRNCKFLKEGTICKRARGDDMDDYCNGKTCDCPRNPHKGPAT (disulfide 2-11, 7-32, 8-37, 20-39 (inferred)) [Echistatin, echistatin]
# output 2.6
